This collection of values is drawn from ChEMBL document CHEMBL4265943.

- assay-notes: Antiproliferative activity against mouse TAMH cells after 72 hrs by MTT assay
- Assay type: cell-based
Lab note - cut at 7 µM for CC50 at 72 h: True if strictly below, False if not.

• CC(=O)Nc1ccc(-c2nc(Nc3ccc(OCCCCCC(=O)NO)cc3)ncc2C)cc1 = True
• CC(=O)Nc1ccc(-c2ccnc(Nc3ccc(NC(=O)CCCCCCC(=O)NO)cc3)n2)cc1 = False
• CC(=O)Nc1ccc(-c2ccnc(Nc3ccc(OCCCCCCC(=O)NO)cc3)n2)cc1 = True
• CN1CCN(CC(=O)Nc2ccc(-c3ccnc(Nc4ccc(OCCCCCCC(=O)NO)cc4)n3)cc2)CC1 = False
• CN1CCN(CC(=O)Nc2ccc(-c3ccnc(Nc4cccc(OCCCCCCC(=O)NO)c4)n3)cc2)CC1 = True
• Cc1cnc(Nc2ccc(N3CCN(C)CC3)cc2)nc1-c1ccc(NC(=O)CCCCCCC(=O)NO)cc1 = False
• O=C(CCCCCCC(=O)Nc1ccc(-c2ccnc(Nc3cccc(N4CCCCC4)c3)n2)cc1)NO = True
• CC(=O)Nc1ccc(-c2ccnc(Nc3ccc(OCCCCCCCC(=O)NO)cc3)n2)cc1 = False
• CC(=O)Nc1ccc(-c2nc(Nc3cccc(OCCCCCCC(=O)NO)c3)ncc2C)cc1 = True
• CC(=O)Nc1ccc(-c2nc(Nc3cccc(OCCCCCCCC(=O)NO)c3)ncc2C)cc1 = False
• CN1CCN(c2ccc(Nc3nccc(-c4ccc(NC(=O)CCCCCCC(=O)NO)cc4)n3)cc2)CC1 = True
• CC(=O)Nc1ccc(-c2ccnc(Nc3cccc(NC(=O)CCCCCCC(=O)NO)c3)n2)cc1 = False
• CC(=O)Nc1ccc(-c2ccnc(Nc3cccc(OCCCCCCCC(=O)NO)c3)n2)cc1 = True
• O=C(CCCCCCC(=O)Nc1ccc(-c2ccnc(Nc3ccc(N4CCCCC4)cc3)n2)cc1)NO = False
• O=C(CCCCCCC(=O)Nc1ccc(-c2ccnc(Nc3ccc(N4CCOCC4)cc3)n2)cc1)NO = True
• CC(=O)Nc1ccc(-c2ccnc(Nc3ccc(OCCCCCC(=O)NO)cc3)n2)cc1 = False
• CC(=O)Nc1ccc(-c2ccnc(Nc3cccc(OCCCCCC(=O)NO)c3)n2)cc1 = False
• Cc1cnc(Nc2ccc(N3CCOCC3)cc2)nc1-c1ccc(NC(=O)CCCCCCC(=O)NO)cc1 = False
• O=C(CCCCCCC(=O)Nc1ccc(-c2ccnc(Nc3ccccc3)n2)cc1)NO = False

----------
- assay-notes: Selectivity index, ratio of CC50 for human AC10 cells to IC50 for human MDA-MB-231 cells
- Assay type: toxicity
- study-conditions: AC10 cells (CC50) and MDA-MB-231 cells (IC50)
Outcome: criterion met for selectivity ratio of at least 10; criterion not met for anything lower.

* CN1CCN(CC(=O)Nc2ccc(-c3ccnc(Nc4ccc(OCCCCCCC(=O)NO)cc4)n3)cc2)CC1 | criterion not met
* O=C(CCCCCCC(=O)Nc1ccc(-c2ccnc(Nc3ccccc3)n2)cc1)NO | criterion met
* CC(=O)Nc1ccc(-c2ccnc(Nc3cccc(OCCCCCC(=O)NO)c3)n2)cc1 | criterion not met
* CC(=O)Nc1ccc(-c2nc(Nc3ccc(OCCCCCC(=O)NO)cc3)ncc2C)cc1 | criterion met
* CC(=O)Nc1ccc(-c2ccnc(Nc3cccc(NC(=O)CCCCCCC(=O)NO)c3)n2)cc1 | criterion met
* CN1CCN(c2ccc(Nc3nccc(-c4ccc(NC(=O)CCCCCCC(=O)NO)cc4)n3)cc2)CC1 | criterion not met
